Tested System: human GLP-1 receptor (human, UniProt P43220 24-463)
Method Notes: cell-based or functional assay
Quick list: hGLP1R EC50 (cAMP activity assay) per entry.
Reply with the number and its unit after it.

Known results for binders:
Binder	hGLP1R EC50 (cAMP activity assay)
HXQGTFTSDKSKYLDERAAQDFVXWLLDT (D-Ser (s) at 2; Nle(εN3) at 24; C-terminal amide) [PEP69]	0.16 nM
HXQGTFTSDKSKYLDERAAQDFVKWLLDT (D-Ser (s) at 2; Lys 10 K(γEγEC16); Lys 24 K(PEG2-C5N3); C-terminal amide) [PEP14]	0.07 nM
HXQGTFTSDKSKYLDERAAQDFVXWXXDT (D-Ser (s) at 2; Lys 10 K(γEγEC16); Nle(εN3) at 24; alpha-methyl-L-Leu (αML) at 26; L-methionine sulphone (2) at 27; C-terminal amide) [PEP37]	0.04 nM

Proceed to the following item.
Q) Entry HXQGTFTSDYSKYLDERAAQDFVKWLLDT (D-Ser (s) at 2; Lys 24 K(PEG2PEG2γE-C16N3); C-terminal amide) [PEP25] has what hGLP1R EC50 (cAMP activity assay)?
A) 0.05 nM

The measured values listed here are drawn from patent US20190175744A1.
